# test target: Neu5Ac(a2-3)Gal(b1-4)GlcNAc(b1-3)Gal(b1-4)GlcNAc
# measurement notes: glycan array binding signal (z-score within array); higher = stronger binding
# protocol conditions: glycan notation: IUPAC condensed, linker removed
The full list was thinned out, with the strongest signals kept by preference.
observation type: glycan array binding signal (z-score)
Answers are plain numbers.

Known glycan array binding signal (z-score) results, listed for orientation:
# binder, glycan array binding signal (z-score)
records = [
    ("Protectin (Homo sapiens), P13987 (protein) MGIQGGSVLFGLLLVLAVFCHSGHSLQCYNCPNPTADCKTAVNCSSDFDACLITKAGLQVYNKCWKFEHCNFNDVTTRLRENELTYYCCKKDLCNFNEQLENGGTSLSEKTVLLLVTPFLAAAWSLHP", 0.462),
    ("Gal 8 (Homo sapiens), O00214_1 (protein) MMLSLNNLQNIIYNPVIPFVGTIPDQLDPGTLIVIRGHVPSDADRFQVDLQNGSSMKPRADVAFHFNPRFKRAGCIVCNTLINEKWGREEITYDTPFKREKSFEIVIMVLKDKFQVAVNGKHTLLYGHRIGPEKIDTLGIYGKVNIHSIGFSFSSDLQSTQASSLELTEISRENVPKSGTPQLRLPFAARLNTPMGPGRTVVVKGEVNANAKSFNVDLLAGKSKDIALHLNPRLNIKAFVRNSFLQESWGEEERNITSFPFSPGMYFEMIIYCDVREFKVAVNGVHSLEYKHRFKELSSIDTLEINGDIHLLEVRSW", -0.244),
    ("C-Reactive Protein (Homo sapiens), P02741 (protein) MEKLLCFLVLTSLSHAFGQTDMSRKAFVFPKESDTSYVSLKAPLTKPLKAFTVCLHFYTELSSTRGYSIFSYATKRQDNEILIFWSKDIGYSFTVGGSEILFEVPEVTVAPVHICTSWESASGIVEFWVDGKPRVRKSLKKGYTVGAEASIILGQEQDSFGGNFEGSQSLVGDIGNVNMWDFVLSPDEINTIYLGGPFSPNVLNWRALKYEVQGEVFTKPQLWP", -0.055),
]

Hey, can you go through the list below and give me glycan array binding signal (z-score) for every item?
1. Gal 3 (Canis lupus) (protein) MADSFSLNDALSGSGNPNPQGWPGPWGNQPAGAGGYPGASYPGAYPGQAPPGGYPGQAPPGGYPGQAPPGGYPGQAPPGGYPGQAPPGGYPGQAPPGTYPGPTAPAYPGPTAPGTQPGQPSGPGAYPPPGQPSAPGAYPAAGPFGIPAGPLTVPYDLPLPGGVKPRMLITILGTVRPSANRLALDFKRGNDVAFHFNPRFNEDNKRVIVCNTKLDNIWGKEERQAAFPFESGKPFKIQVLVESDHFKVAVNDAHLLQYNHRMKNLPEISKLGISGDIDLTSASYAMI
2. Gal 2 (Homo sapiens), P05162 (protein) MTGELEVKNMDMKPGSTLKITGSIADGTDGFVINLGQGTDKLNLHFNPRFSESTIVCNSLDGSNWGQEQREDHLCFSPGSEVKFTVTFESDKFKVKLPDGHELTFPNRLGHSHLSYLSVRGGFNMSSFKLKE

[out]
0.679
-0.292

The reported measurements were obtained from the supplement of paper PMC8728848.
